Reported growth inhibition values for a set of compounds
assay: NCI Yeast Anticancer Drug Screen. Data for the sgs1 mgt1 strain (AID 161);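 further: 0% = growth of cultures given vehicle only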; conditions: S. cerevisiae sgs1 mgt1 strain, at 50.0 µM, active compounds read high
Compounds without any hit were thinned out: in the full panel of roughly 79,000, 15% have a hit.
Give a bare numeral; the unit % is implied.

[[record]]
compound = "COc1cc2c(cc1OC)C13CCN4CC5CCOC6CC(=O)N2C1C6C5CC43 (configuration not stated)"
scale_unit = "%"
assay_value = 21.6


Quick note, growth inhibition for `Nc1ccc(S(=O)(=O)F)cc1` landed at -34.6

Quick note, growth inhibition for `[Se]=P(c1ccccc1)(N1CC1)N1CC1` landed at 11.8

Quick note, growth inhibition for `Cc1cccc(NC2=NCCO2)c1Cl` landed at -11

Quick note, growth inhibition for `CSc1ccc([As](=O)(O)O)cc1` landed at 30.9

Quick note, growth inhibition for Clc1ccc(C(c2ccccc2Cl)C(Cl)(Cl)Cl)cc1 (configuration not stated) landed at 1.8

Quick note, growth inhibition for O=C(Cl)OC1CS(=O)(=O)CC1O (configuration not stated) landed at -2.5

Quick note, growth inhibition for `C=C(C)[C@H]1Cc2c(ccc3c2O[C@@H]2COc4cc(OC)c(OC)cc4[C@@H]2C3=O)O1` landed at 43.4

Quick note, growth inhibition for `C1C[N-]CC[N-]1.C1C[N-]CC[N-]1.N#CS.[Ni+2]` landed at 1.4

Quick note, growth inhibition for `N#CC(CCN1CCC(Nc2ccccc2)(c2nnnn2C2CCCCC2)CC1)(c1ccccc1)c1ccccc1` landed at 3.75

Quick note, growth inhibition for O=C1OC(=O)C2CC3C(CC12)C1(Cl)C(Cl)=C(Cl)C3(Cl)C1(Cl)Cl (configuration not stated) landed at -13.1

Quick note, growth inhibition for C/C(CCl)=N\NC1=NC(C)(CCl)P(=O)(NNc2ncccn2)S1 (configuration not stated) landed at 5.2

====

experiment: NCI Yeast Anticancer Drug Screen. Data for the mlh1 rad18 strain (AID 175); settings: S. cerevisiae mlh1 rad18 strain growth inhibition; at 50.0 µM; active compounds read high
The panel holds about 79,000 compounds, 15% with a hit somewhere; the sample as a whole holds those more often. Activity calls are given as the source filed them. No stated cut-off is given here; in the data, active means growth inhibition above about 70%; inactive means the rest.
Reported growth inhibition values for a set of molecules

Quick note, growth inhibition for Cc1ncc([N+](=O)[O-])n1C(C)C(=O)Nc1ccc(N(CCCl)CCCl)cc1 (stereo not drawn) landed at 13.2% (inactive)

Quick note, growth inhibition for `O=C1NC(=O)C(O)(C2=C(O)CCC2=O)C(=O)N1` landed at 10.4% (inactive)

Quick note, growth inhibition for `CN(C)C(=O)Oc1cc(O)cc([N+](=O)[O-])c1` landed at -28.1% (inactive)

Quick note, growth inhibition for C[N+](C)(C)CC1CCC/C1=N/O (stereo not drawn) landed at 34.9% (inactive)

Quick note, growth inhibition for `O=NN1CCCNCC1` landed at 4.25% (inactive)

====

experiment: NCI Yeast Anticancer Drug Screen. Data for the sgs1 mgt1 strain (AID 161);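 further: 0% = growth of cultures given vehicle only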; details: S. cerevisiae sgs1 mgt1 strain, at 50.0 µM
The panel holds about 79,000 compounds, 15% with a hit somewhere; the sample as a whole holds those more often. The source made the active and inactive calls. Cut-off read from the data, not from the text of the source: active = growth inhibition above about 70%; inactive = the rest.
Lab note: assign the record to one of 1 (active), 0 (inactive)

# example entries with known answers
[[record]]
compound = "NS(=O)(=O)CC1CC[CH-]CC1.[Cl-].[Cl-].[Cl-].[Cl-].[Cl-].[Sb+5].c1ccncc1"
cat = 0

[[record]]
compound = "Cc1cc(-c2ccccc2)cc(-c2ccccc2)[o+]1"
cat = 0

[[record]]
compound = "NCCCC(N)P(=O)(O)O (configuration not stated)"
cat = 0

[[record]]
compound = "N=Cc1c(O)[nH]c(=O)[nH]c1=O"
cat = 0

[[record]]
compound = "CC(C)CCN(CCc1ccccc1[N+](=O)[O-])CCC(C)C"
cat = 0

[[record]]
compound = "[C-]#[O+].[C-]#[O+].[C-]#[O+].[C-]#[O+].[C-]#[O+].[CH3][Sn]([Cl])[c]1ccccc1.[Mn]"
cat = 1

[[record]]
compound = "c1ccc(P2c3ccccc3Oc3ccccc32)cc1"
cat = 0

[[record]]
compound = "Cc1ccc(P(=S)(c2ccccc2)c2ccccc2)c2ccccc12"
cat = 0

[[record]]
compound = "Cc1cc(Cl)ccc1O"
cat = 0

[[record]]
compound = "CCC1CN1CCC(=O)Nc1ccccc1 (configuration not stated)"
cat = 0


Tell me the assay call for COc1c2c(cc3c1OCO3)[C@]13C=C[C@H](OC)C[C@H]1N(C2)CC3O (some centres not stated) please. 0

Tell me the assay call for `OCCCNCc1cccnc1` please. 0

Tell me the assay call for `COc1ccn(C)c(=O)c1C#N` please. 0

Tell me the assay call for `O=[N+]([O-])c1c(Cl)cc(Cl)c([N+](=O)[O-])c1Cl` please. 0

Tell me the assay call for `COc1cc(/C=N/NC(=O)CN(C)C)cc(OC)c1N(CCCl)CCCl` please. 0

Tell me the assay call for O=C(c1ccccc1)C1CN(C2CCCC2)C1c1ccccc1 (configuration not stated) please. 0

====

Reported growth inhibition values for a set of molecules
Assay: NCI Yeast Anticancer Drug Screen. Data for the mec2-1 strain (AID 157)
Conditions: S. cerevisiae mec2-1 strain, at 50.0 µM, active compounds read high
Description: Growth inhibition of yeast strains with defined genetic alterations is measured as a screen for potential anti-cancer activity. Selected strains with alterations in DNA damage repair or cell cycle control were exposed to compounds and growth inhibition was measured relative to vehicle treated controls. The strain used in this assay is mec2-1
The panel holds about 79,000 compounds, 15% with a hit somewhere; the sample as a whole holds those more often. Calls of active or inactive are those of the source. No stated cut-off is given here; in the data, active means growth inhibition above about 70%; inactive means the rest.

Example entries begin here.
[[record]]
molecule = "O=C(c1ccc(Cl)cc1)N1CCOCC1"
assay_endpoint = "growth inhibition"
assay_value = "-15.2% (inactive)"

[[record]]
molecule = "CCOP(=O)(OCC)Oc1ccc(S(C)=O)cc1 (stereo not drawn)"
assay_endpoint = "growth inhibition"
assay_value = "-14.8% (inactive)"

[[record]]
molecule = "NCCn1ccc2ccccc21"
assay_endpoint = "growth inhibition"
assay_value = "-21.2% (inactive)"

[[record]]
molecule = "CCOC(C(=O)O)(c1ccccc1)c1ccccc1"
assay_endpoint = "growth inhibition"
assay_value = "22.2% (inactive)"

[[record]]
molecule = "CCOP(=O)(OCC)Oc1c(Cl)c(Cl)c(Cl)c(Cl)c1Cl"
assay_endpoint = "growth inhibition"
assay_value = "47.4% (inactive)"


Quick note, growth inhibition for O=C(Nc1ccccc1)N(C1=NCC(CI)S1)c1ccc(F)cc1F (stereo not drawn) landed at 6.75% (inactive)

Quick note, growth inhibition for CC(=O)CC(C)C(=O)O (stereo not drawn) (tested in a mixture with another compound) landed at -11% (inactive)

Quick note, growth inhibition for `N#CCc1ccccc1.N#CCc1ccccc1.[C-]#[O+].[C-]#[O+].[C-]#[O+].[C-]#[O+].[W]` landed at -16.2% (inactive)

Quick note, growth inhibition for `COP(=O)(Cc1ccc(/C=C/C#N)o1)OC` landed at -3.1% (inactive)

Quick note, growth inhibition for Nc1cccc(SC2CC(=O)N(c3ccc(Cl)cc3C(=O)c3ccccc3)C2=O)c1 (stereo not drawn) landed at -4.6% (inactive)

Quick note, growth inhibition for `CCC[CH2][Sn]([CH2]CCC)[CH2]CCC.CCC[CH2][Sn]([CH2]CCC)[CH2]CCC` landed at 99.7% (active)

Quick note, growth inhibition for NC(=O)NC(O)C(Cl)(Cl)Cl (stereo not drawn) landed at -33.9% (inactive)

Quick note, growth inhibition for Oc1ccc(C(c2cc3c(cc2O)OCO3)N2CCNCC2)cc1 (stereo not drawn) landed at 25.7% (inactive)

Quick note, growth inhibition for `c1ccc([As](c2ccccc2)c2ccccc2)cc1` landed at -0.95% (inactive)

Quick note, growth inhibition for `CN(N=O)C(=O)ON1C(=O)CCC1=O` landed at 7.55% (inactive)

Quick note, growth inhibition for `Cc1ccc(NC(=O)/C=C/c2ccc([N+](=O)[O-])cc2)cc1S(=O)(=O)F` landed at 27.9% (inactive)

Quick note, growth inhibition for O=C1OCC2(CO)SC(c3ccccc3)NC12 (stereo not drawn) landed at -0.3% (inactive)

Quick note, growth inhibition for CC(C)C1NC(C(C)C)N2C(C(C)C)N12 (stereo not drawn) landed at -17.2% (inactive)

Quick note, growth inhibition for `CC(C)(C)c1ccc2c(cc[n+]3ccccc23)c1` landed at -6.85% (inactive)

Quick note, growth inhibition for `CCCCOC(=O)c1ccccc1C(=O)O.[Mn]` landed at -11.8% (inactive)

Quick note, growth inhibition for `CCOc1ccc(/C=C/c2cc(OC)c(OC)c(OC)c2)cc1` landed at -21.7% (inactive)

Quick note, growth inhibition for `CCOC(=O)CN(Cc1ccccc1)Cc1c(C(=O)c2ccccc2)c2ccccc2n1C(=O)c1ccccc1` landed at -11.8% (inactive)

Quick note, growth inhibition for NC1CC(O)C(O)CC1c1ccc2c(c1)OCO2 (stereo not drawn) landed at -4.45% (inactive)

Quick note, growth inhibition for `O=[N+]([O-])c1cccc2ncccc12` landed at -14.4% (inactive)

Quick note, growth inhibition for C/C(=N\O)C(CN1CCCCC1)C(c1ccccc1)c1c(O)c2ccccc2oc1=O (stereo not drawn) landed at 2.05% (inactive)

Quick note, growth inhibition for `CCOC(OCC)/C(=C\N(C)C)N=C(C#N)C#N` landed at -2.4% (inactive)

Quick note, growth inhibition for CCOC(=O)C1C2(C)NC(=O)C1(Cc1ccccc1)c1cc(C)c(C)cc1O2 (stereo not drawn) landed at 16.5% (inactive)
